Experiment: activity coefficient (dimensionless); of the first substance listed, at infinite dilution; xn = mol fraction of the nth substance listed
Conditions: 313.15 K; Liquid; dilutor; x1 = 0
// activity coefficient lookup, one value per entry

{"compound": "CCCCCC [hexane] + CCCCCC[n+]1ccn(C)c1.O=S(=O)([N-]S(=O)(=O)C(F)(F)F)C(F)(F)F", "value": 7.55}
{"compound": "CCCC(C)=O [pentan-2-one] + CCCC[N+]1(C)CCCC1.O=S(=O)([N-]S(=O)(=O)C(F)(F)F)C(F)(F)F", "value": 0.66}
{"compound": "CCO [ethanol] + CCCC[N+]1(C)CCCC1.O=S(=O)([N-]S(=O)(=O)C(F)(F)F)C(F)(F)F", "value": 1.73}
{"compound": "C=CCCCCC [1-heptene] + CCCC[N+]1(C)CCCC1.O=S(=O)([N-]S(=O)(=O)C(F)(F)F)C(F)(F)F", "value": 9.97}
{"compound": "CCCCC [pentane] + CCCC[N+]1(C)CCCC1.O=S(=O)([N-]S(=O)(=O)C(F)(F)F)C(F)(F)F", "value": 9.18}
{"compound": "C1=CCCCC1 [cyclohexene] + CCCCCC[n+]1ccn(C)c1.O=S(=O)([N-]S(=O)(=O)C(F)(F)F)C(F)(F)F", "value": 3.15}
{"compound": "CCCCC [pentane] + CCCCCCCCn1cc[n+](C)c1.O=S(=O)([N-]S(=O)(=O)C(F)(F)F)C(F)(F)F", "value": 3.92}
{"compound": "CO [methanol] + CCCCCC[n+]1ccn(C)c1.O=S(=O)([N-]S(=O)(=O)C(F)(F)F)C(F)(F)F", "value": 1.16}
{"compound": "C=CCCCCC [1-heptene] + CCCCCC[n+]1ccn(C)c1.O=S(=O)([N-]S(=O)(=O)C(F)(F)F)C(F)(F)F", "value": 6.12}
{"compound": "CCCCCCC [heptane] + CCCCCC[n+]1ccn(C)c1.O=S(=O)([N-]S(=O)(=O)C(F)(F)F)C(F)(F)F", "value": 10.6}

Req: Tell me the measured activity coefficient of C1=CCCC1 [cyclopentene] + CCCCCCCCn1cc[n+](C)c1.O=S(=O)([N-]S(=O)(=O)C(F)(F)F)C(F)(F)F , please.
Resp: 1.84

Req: Then C=CCCCCC [1-heptene] + CCCCCCCCn1cc[n+](C)c1.O=S(=O)([N-]S(=O)(=O)C(F)(F)F)C(F)(F)F ?
Resp: 4.26

Req: Then C1CCCCC1 [cyclohexane] + CCCC[N+]1(C)CCCC1.O=S(=O)([N-]S(=O)(=O)C(F)(F)F)C(F)(F)F ?
Resp: 8.43

Req: Then C1=CCCCC1 [cyclohexene] + CCCCCCCCn1cc[n+](C)c1.O=S(=O)([N-]S(=O)(=O)C(F)(F)F)C(F)(F)F ?
Resp: 2.38

Req: Then C=CCCCC [hex-1-ene] + CCCCCC[n+]1ccn(C)c1.O=S(=O)([N-]S(=O)(=O)C(F)(F)F)C(F)(F)F ?
Resp: 4.56

====

Experiment: activity coefficient (dimensionless); of the first substance listed, at infinite dilution; xn = mol fraction of the nth substance listed
Settings: 313.15 K; Liquid; dilutor; x1 = 0
// activity coefficient lookup, one value per entry

{"compound": "C1CCCCC1 [cyclohexane] + CCCCCCCCn1cc[n+](C)c1.O=S(=O)([N-]S(=O)(=O)C(F)(F)F)C(F)(F)F", "activity coefficient": 3.59}
{"compound": "CCCCCCCC [octane] + CCCC[N+]1(C)CCCC1.O=S(=O)([N-]S(=O)(=O)C(F)(F)F)C(F)(F)F", "activity coefficient": 26.5}
{"compound": "CCCCCCC [heptane] + CCCCCCCCn1cc[n+](C)c1.O=S(=O)([N-]S(=O)(=O)C(F)(F)F)C(F)(F)F", "activity coefficient": 6.81}
{"compound": "C=CCCC [1-pentene] + CCCCCCCCn1cc[n+](C)c1.O=S(=O)([N-]S(=O)(=O)C(F)(F)F)C(F)(F)F", "activity coefficient": 2.53}

Req: Tell me the measured activity coefficient of C1CCCC1 [cyclopentane] + CCCC[N+]1(C)CCCC1.O=S(=O)([N-]S(=O)(=O)C(F)(F)F)C(F)(F)F , please.
Resp: 5.7

Req: Then CCCCCCC [heptane] + CCCC[N+]1(C)CCCC1.O=S(=O)([N-]S(=O)(=O)C(F)(F)F)C(F)(F)F ?
Resp: 19.3

Req: Then C=CCCCCCC [oct-1-ene] + CCCCCC[n+]1ccn(C)c1.O=S(=O)([N-]S(=O)(=O)C(F)(F)F)C(F)(F)F ?
Resp: 8.08
